- system_name: H3 receptor (UniProt Q9Y5N1)
- test_protocol: H3 Receptor Binding Assay
- measurement_parameters: displacement of 3 nM [3H]R-α-methyl histamine or [3H]Nα-methyl histamine; membranes from guinea pig brain, alternatively recombinant human receptor in HEK-293 cells; 30° C., 30 minutes; read-out: H3 Ave Ki
property: Ki (nM)

Example results:
[
  {
    "query_smiles": "Cc1nnc2ccc(-c3ccc4nc(CCN5CCC[C@H]5C)cn4c3)cn12",
    "system_name": "H3 receptor (UniProt Q9Y5N1)",
    "unit": "nM",
    "Ki": 7.1
  },
  {
    "query_smiles": "C[C@@H]1CCCN1CCc1cn2cc(-c3cccc4ncccc34)ccc2n1",
    "system_name": "H3 receptor (UniProt Q9Y5N1)",
    "unit": "nM",
    "Ki": 104
  },
  {
    "query_smiles": "COc1ccccc1-c1ccc2nc(CCN3CCC[C@H]3C)cn2c1",
    "system_name": "H3 receptor (UniProt Q9Y5N1)",
    "unit": "nM",
    "Ki": 163
  }
]

a = C[C@@H]1CCCN1CCc1cn2cc(-c3cncnc3)ccc2n1
b = C[C@@H]1CCCN1CCc1cn2ccc(-c3ccccc3F)cc2n1
// query Consider a and b . Which of these has its Ki at a higher number? Refer to your chosen item by its label in the answer.
// result a
(a: 366 nM, b: 25 nM)
